Entries and their BWZhT2 LUC Solution (FOB)
# TARGET OF ASSAY: recombinant human TREM2-DAP12 fusion protein expressed on cells (human)
# Sequence (chain, as listed by the source limits assumed, form in doubt): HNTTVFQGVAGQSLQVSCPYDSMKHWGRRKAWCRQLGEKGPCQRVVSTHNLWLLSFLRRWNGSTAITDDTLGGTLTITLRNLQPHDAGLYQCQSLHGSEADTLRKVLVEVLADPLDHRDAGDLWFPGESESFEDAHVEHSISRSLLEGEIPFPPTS
# TEST PROTOCOL: cell-based or functional assay
Your answer is read as FOB, so omit the unit and give the number.

Solved cases below.
BINDER	BWZhT2 LUC Solution (FOB)
9F5 (antibody, IgG1, V domains shown) VL: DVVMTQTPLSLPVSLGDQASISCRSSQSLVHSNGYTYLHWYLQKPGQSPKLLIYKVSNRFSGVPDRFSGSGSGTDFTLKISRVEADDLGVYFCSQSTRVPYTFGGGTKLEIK VH: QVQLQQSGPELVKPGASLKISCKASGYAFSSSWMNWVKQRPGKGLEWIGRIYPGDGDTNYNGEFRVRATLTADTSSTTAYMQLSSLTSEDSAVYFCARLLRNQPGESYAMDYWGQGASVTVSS	1.75
9G1 (antibody, IgG1, V domains shown) VL: DVLMTQTPLSLPVSLGDQASISCRFSQSLVHSNGNTYLHWYLQKPGQSPKLLIYKVSNRFSGVPDRFSGSGSGTDFTLRISGVEAEDLGVYFCSQSTRVPPTFGGGTKLEIK VH: QVQLQQSGAELVKPGASVKLSCKASGYIFTTYWIHWVKQRPGRGPEWIGRIDPNNGDTNYNEKFKTKATLTVDKPSSTADMQLSSLTSEDSAVYYCVMTGTDFDYWGQGTTLTVSS	1.07

# input binder: 6H2 (antibody, IgG2a, V domains shown) VL: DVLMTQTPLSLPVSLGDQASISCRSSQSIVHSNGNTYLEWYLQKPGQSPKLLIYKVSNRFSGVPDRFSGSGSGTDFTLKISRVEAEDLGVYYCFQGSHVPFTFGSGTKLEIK VH: QVQLQESGPGLVQPSQSLSIICTVSAFSLTNYAVHWIRQSPGKGLEWLGVIWSGGSTAFNAAFISRLNISKDNSKSQVFFKMNSLQSDDTAIYYCATHYYRSTYAFSYWGQGTLVTVSA ; wanted: its BWZhT2 LUC Solution (FOB)
3.6
